Molecular target: Ba/F3 EGFR-D770-N771ins_SVD (Homo sapiens, UniProt P00533, DUP768-770, cells depend on it)
Sequence (P00533 with tags, fused parts or gaps DUP768-770): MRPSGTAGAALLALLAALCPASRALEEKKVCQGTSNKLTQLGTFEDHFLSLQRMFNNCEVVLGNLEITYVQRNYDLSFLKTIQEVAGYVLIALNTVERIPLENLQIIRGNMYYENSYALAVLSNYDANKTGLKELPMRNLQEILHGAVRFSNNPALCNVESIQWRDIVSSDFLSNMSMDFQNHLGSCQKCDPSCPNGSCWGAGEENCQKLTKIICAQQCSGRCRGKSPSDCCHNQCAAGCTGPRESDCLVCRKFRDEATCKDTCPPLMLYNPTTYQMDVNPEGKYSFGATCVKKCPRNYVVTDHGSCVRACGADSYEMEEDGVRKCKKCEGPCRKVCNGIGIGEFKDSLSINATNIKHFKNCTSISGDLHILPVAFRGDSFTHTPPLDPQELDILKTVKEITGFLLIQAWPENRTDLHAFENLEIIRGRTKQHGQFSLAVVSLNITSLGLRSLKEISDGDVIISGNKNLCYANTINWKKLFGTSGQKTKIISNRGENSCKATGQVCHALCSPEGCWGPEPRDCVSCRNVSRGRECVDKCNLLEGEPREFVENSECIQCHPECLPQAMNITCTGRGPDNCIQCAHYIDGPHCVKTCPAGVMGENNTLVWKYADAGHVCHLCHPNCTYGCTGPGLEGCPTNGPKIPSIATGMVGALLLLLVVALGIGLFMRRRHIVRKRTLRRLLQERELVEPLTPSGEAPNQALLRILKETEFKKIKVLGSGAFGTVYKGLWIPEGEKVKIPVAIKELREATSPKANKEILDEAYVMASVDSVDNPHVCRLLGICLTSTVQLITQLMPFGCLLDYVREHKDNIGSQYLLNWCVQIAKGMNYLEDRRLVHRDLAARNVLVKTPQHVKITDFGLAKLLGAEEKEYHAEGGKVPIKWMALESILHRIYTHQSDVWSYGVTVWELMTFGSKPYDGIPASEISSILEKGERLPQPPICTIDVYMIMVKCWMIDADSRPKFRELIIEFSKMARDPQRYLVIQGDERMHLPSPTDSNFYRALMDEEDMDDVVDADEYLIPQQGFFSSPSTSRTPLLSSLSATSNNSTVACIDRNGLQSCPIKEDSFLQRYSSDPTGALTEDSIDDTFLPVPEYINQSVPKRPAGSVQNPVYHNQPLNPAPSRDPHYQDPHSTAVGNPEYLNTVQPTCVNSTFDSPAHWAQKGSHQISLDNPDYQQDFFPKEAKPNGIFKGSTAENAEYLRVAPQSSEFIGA
Assay: Proliferation experiment of Ba/F3 cell line, EGFR-D770-N771ins_SVD (CellTiter-Glo)
Format: cell-based
Conditions: cultured for 72 hrs with compound, CTG analysis, read-out: Ba/F3 EGFR-D770-N771ins_SVD IC50
Measurement type: GI50 (nM)

C=CC(=O)Nc1cc2c(Nc3ccnc(-c4ccccc4F)c3)ncnc2cc1OCCN1CCOCC1: 1.3
C=CC(=O)Nc1cc2c(Nc3cccc(-c4ccc(F)cc4F)c3)ncnc2cc1OCCN1CCC(F)(F)CC1: 104
C=CC(=O)Nc1cc2c(Nc3cccc(-n4nccn4)c3)ncnc2cc1OCCCN1CCOCC1: 15
C=C(F)C(=O)Nc1cc2c(Nc3ccnc(-c4ccccc4F)c3)ncnc2cc1N1CCC(O)CC1: 4.4
C=CC(=O)Nc1cc2c(Nc3cccc(-c4ccc(F)cc4F)c3)ncnc2cc1C#CC(C)(C)N1CCN(C)CC1: 32.3

a = C=CC(=O)Nc1cc2c(Nc3ccnc(-c4ccccc4F)c3)ncnc2cc1O[C@@H]1CCN(C(C)C)C1
b = C=CC(=O)Nc1cc2c(Nc3cccc(-c4ccc(F)cc4F)c3)ncnc2cc1OCCCN1CCN(C)CC1
c = C=CC(=O)Nc1cc2c(Nc3ccc(F)c(-c4c(F)cccc4F)c3)ncnc2cc1OCCCN1CCN(C)CC1
d = C=CC(=O)Nc1cc2c(Nc3cccc(-c4ccc(F)cc4F)c3)ncnc2cc1C#CC(C)(C)N(C)C
e = C=C(F)C(=O)Nc1cc2c(Nc3ccnc(-c4ccccc4F)c3)ncnc2cc1OCC
[ask] Please give the order of these molecules when sorted by GI50, largest value leading. # the answer lists labels in the order requested
[reply] d, b, c, e, a
(d: 40.1 nM, b: 25.2 nM, c: 15 nM, e: 4.1 nM, a: 2.4 nM)

a = C=CC(=O)Nc1cc2c(Nc3cccc(-c4c(F)cc(F)cc4F)c3)ncnc2cc1OCCCN1CCOCC1
b = C=CC(=O)Nc1cc2c(Nc3cccc(-c4c(F)cccc4F)c3)ncnc2cc1OCCCN1CCN(CC)CC1
c = C=C(F)C(=O)Nc1cc2c(Nc3ccnc(-c4ccccc4F)c3)ncnc2cc1OCC1CC1
[ask] Hey, quick one: sort these by GI50, low to high? # the answer lists labels in the order requested
[reply] c, b, a

P = C=CC(=O)Nc1cc2c(Nc3cccc(-c4c(F)cccc4F)c3)ncnc2cc1O[C@@H]1CCN(C)C1
Q = C=CC(=O)Nc1cc2c(Nc3ccnc(-c4ccccc4F)c3)ncnc2cc1OC
[ask] Of P and Q , whose reported GI50 is numerically smaller? Write the label of whichever entry you select.
[reply] Q
(Q: 1.7 nM, P: 31.6 nM)

----------
Molecular target: Ba/F3 EGFR-V769_D770insASV (Homo sapiens, UniProt P00533, DUP767-769, cells depend on it)
Sequence (P00533 with tags, fused parts or gaps DUP767-769): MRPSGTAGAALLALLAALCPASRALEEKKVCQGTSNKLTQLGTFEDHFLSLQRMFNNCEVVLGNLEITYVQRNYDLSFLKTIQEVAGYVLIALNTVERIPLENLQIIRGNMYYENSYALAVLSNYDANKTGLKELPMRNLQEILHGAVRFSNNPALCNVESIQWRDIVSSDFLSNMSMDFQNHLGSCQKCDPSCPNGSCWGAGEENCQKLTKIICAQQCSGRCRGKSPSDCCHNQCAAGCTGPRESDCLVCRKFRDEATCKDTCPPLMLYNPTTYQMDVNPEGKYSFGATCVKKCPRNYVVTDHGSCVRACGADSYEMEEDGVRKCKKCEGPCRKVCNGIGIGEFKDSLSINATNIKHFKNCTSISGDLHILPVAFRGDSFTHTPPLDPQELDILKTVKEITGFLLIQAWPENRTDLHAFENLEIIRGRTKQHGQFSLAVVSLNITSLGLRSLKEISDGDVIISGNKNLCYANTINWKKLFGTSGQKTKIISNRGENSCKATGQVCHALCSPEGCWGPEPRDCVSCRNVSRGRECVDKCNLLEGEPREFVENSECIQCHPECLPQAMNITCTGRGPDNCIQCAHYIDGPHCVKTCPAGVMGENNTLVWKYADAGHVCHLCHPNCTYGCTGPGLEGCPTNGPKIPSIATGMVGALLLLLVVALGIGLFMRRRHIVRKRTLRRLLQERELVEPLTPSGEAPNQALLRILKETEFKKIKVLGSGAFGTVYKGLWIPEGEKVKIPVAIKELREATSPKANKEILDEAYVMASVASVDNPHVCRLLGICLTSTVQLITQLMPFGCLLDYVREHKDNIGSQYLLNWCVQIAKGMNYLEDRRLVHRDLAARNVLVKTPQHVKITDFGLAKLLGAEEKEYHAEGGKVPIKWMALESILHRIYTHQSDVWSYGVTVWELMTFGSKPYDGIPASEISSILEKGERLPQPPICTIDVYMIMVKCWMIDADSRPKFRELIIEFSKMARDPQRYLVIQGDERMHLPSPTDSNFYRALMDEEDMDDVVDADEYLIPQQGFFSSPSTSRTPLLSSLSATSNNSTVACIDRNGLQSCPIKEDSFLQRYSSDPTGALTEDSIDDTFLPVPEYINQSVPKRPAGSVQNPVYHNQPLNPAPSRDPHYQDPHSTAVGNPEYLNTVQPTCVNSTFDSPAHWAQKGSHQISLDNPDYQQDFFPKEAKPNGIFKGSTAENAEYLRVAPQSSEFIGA
Test: Proliferation experiment of Ba/F3 cell line, EGFR-V769_D770insASV (CellTiter-Glo)
Assay type: cell-based
Conditions: cultured for 72 hrs with compound, CTG analysis, read-out: Ba/F3 EGFR-V769_D770insASV IC50
Measurement type: GI50 (nM)

Solved cases (3 shown):
C=CC(=O)Nc1cc2c(Nc3cncc(-c4ccccc4F)c3)ncnc2cc1OCCN1CCOCC1: 28.7
C=CC(=O)Nc1cc2c(Nc3ccc(F)c(-c4ccccc4F)c3)ncnc2cc1OCCCN1CCOCC1: 31.5
C=CC(=O)Nc1cc2c(Nc3ccnc(-c4ccccc4F)c3)ncnc2cc1O[C@@H]1CCN(CC)C1: 9.1

1 = C=CC(=O)Nc1cc2c(Nc3ccc(F)c(-c4c(F)cccc4F)c3)ncnc2cc1OCCCN1CCN(C)CC1
2 = C=CC(=O)Nc1cc2c(Nc3cccc(-c4c(F)cccc4F)c3)ncnc2cc1OCCN1CCOCC1
[ask] Among 1 and 2 , which shows a numerically higher GI50 result? Write the label of whichever entry you select.
[reply] 2
(2: 97.4 nM, 1: 25.4 nM)

I = C=C(F)C(=O)Nc1cc2c(Nc3ccnc(-c4ccccc4F)c3)ncnc2cc1N1CCC(F)CC1
II = C=CC(=O)Nc1cc2c(Nc3ccc(F)c(-c4ccc(F)cc4)c3)ncnc2cc1OCCCN1CCN(C)CC1
[ask] Of I and II , whose reported GI50 is numerically smaller? Write the label of whichever entry you select.
[reply] I

Hey, just so you know, these numbers are from patent US12649727B2.
